Target: T1, human PVRIG-his (AcroBiosystems, Cat NO. PVG-H52H4) (human, UniProt Q6DKI7 41-171, limits assumed)
T1 construct: also called human PVRIG protein
T1 sequence (looked up): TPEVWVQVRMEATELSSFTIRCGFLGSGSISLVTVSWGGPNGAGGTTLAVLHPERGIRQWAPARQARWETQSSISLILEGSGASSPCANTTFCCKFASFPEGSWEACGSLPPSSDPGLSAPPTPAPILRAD
Experiment: SPR (BIAcore), antibody captured on Protein A chip, human PVRIG-His analyte
Assay Readout: kon (M⁻¹ s⁻¹)
Record the value in M⁻¹ s⁻¹, omitting the unit from your answer.

PVRIG-A105-H3 (Fc fusion, humanized variant of PVRIG-A105; also called A105.VH3; not shown: constant part not restated for the humanized forms; parents are VHH-hinge-CH2-CH3 of human IgG1; detected by anti-human) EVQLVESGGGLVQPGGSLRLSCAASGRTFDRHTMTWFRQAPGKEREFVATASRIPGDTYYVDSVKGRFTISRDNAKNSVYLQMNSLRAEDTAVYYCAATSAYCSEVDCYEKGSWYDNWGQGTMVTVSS | 925000

Inquiry: Using the record for PVRIG-A118 (Fc fusion, heavy chain antibody VHH-hinge-CH2-CH3, human IgG1 constant part; not shown: human IgG1 hinge-CH2-CH3) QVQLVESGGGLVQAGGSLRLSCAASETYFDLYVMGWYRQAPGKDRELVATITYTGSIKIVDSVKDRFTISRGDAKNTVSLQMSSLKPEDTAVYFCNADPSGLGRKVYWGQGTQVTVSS , report its kon.
Reply text: 2.12e+06
